Test system: Liver COMT
ASSAY_PROCEDURE: Ex vivo COMT activity in mouse liver homogenates after administration of test compound by gastric tube
Parameters: species or system NMRI mice
RECORDED_CONDITIONS: homogenates of mice liver, 1 h after administration by gastric tube; dose not given; means±S.E.M. of 4-8 experiments
Liver COMT (% of control) 1h overview

Answered cases to consult:
- COMPOUND: "CC1CCCCN1CCC(=O)c1cc(O)c(O)c([N+](=O)[O-])c1.Cl (stereo not shown) [Compound 26]"
  Liver COMT (% of control) 1h: "18.3±2.9 % of control"
- COMPOUND: "Cl.N#CC1(c2ccccc2)CCN(CCC(=O)c2cc(O)c(O)c([N+](=O)[O-])c2)CC1 [Compound 15]"
  Liver COMT (% of control) 1h: "51.7±5.9 % of control"
- COMPOUND: "COc1ccc(OCC(=O)c2cc(O)c(O)c([N+](=O)[O-])c2)cc1 [Compound 9]"
  Liver COMT (% of control) 1h: "29.0±1.0 % of control"

Shift focus to the following entry.
Problem: Can you share its Liver COMT (% of control) 1h? I mean this compound: Cl.O=C(CC(c1ccccc1)N1CCCCC1)c1cc(O)c(O)c([N+](=O)[O-])c1 (stereo not shown) [Compound 3]
Solution: 13.5±3.2 % of control

* * *

TEST_SYSTEM: COMT (Homo sapiens)
Construct: COMT activity was evaluated in cell monolayers by the ability to methylate adrenaline; host or cells: SK-N-SH
Sequence (P21964 whole entry): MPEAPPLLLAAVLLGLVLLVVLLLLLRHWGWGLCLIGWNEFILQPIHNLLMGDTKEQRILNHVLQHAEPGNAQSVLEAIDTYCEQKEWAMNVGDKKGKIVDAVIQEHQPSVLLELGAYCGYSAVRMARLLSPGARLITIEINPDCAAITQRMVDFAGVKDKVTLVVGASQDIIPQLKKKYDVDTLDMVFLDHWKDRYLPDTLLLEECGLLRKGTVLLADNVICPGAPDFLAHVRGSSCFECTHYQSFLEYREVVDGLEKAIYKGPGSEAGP
ASSAY_PROCEDURE: COMT activity in intact SK-N-SH cells (methylation of adrenaline to metanephrine, HPLC with electrochemical detection)
Format: cell-based
RECORDED_CONDITIONS: concentration of test compound 100 nM, means ±SEM of n=4-8
PROPERTY_LABEL: COMT activity (% of control)

// below: answered compounds
- COMPOUND: "Cc1ccc(SCC(=O)c2cc(O)c(O)c([N+](=O)[O-])c2)cc1 [Compound 28]"
  EXPERIMENTAL_VALUE: "10.0±2.6 % of control"
- COMPOUND: "Cl.O=C(CCN1CCc2ccccc2C1)c1cc(O)c(O)c([N+](=O)[O-])c1 [Compound 27]"
  EXPERIMENTAL_VALUE: "11.4±4.0 % of control"
- COMPOUND: "Cl.O=C(CCN1CCCCCCC1)c1cc(O)c(O)c([N+](=O)[O-])c1 [Compound 16]"
  EXPERIMENTAL_VALUE: "3.2±0.2 % of control"

Problem: Form entry - test system: COMT (Homo sapiens); read-out: COMT activity (% of control); compound: Cl.O=C(CC(c1ccccc1)N1CCOCC1)c1cc(O)c(O)c([N+](=O)[O-])c1 (stereo not shown) [Compound 5]
Solution: 40.2±8.7 % of control

Problem: Fill in the recorded COMT activity (% of control) for this compound, with COMT (Homo sapiens) as test system: CCOC(=O)C1CCN(CCC(=O)c2cc(O)c(O)c([N+](=O)[O-])c2)CC1.Cl [Compound 17]
Solution: 7.7±0.5 % of control

Problem: Short answer please: COMT activity (% of control), COMT (Homo sapiens), entry O=C(COc1cccc2ccccc12)c1cc(O)c(O)c([N+](=O)[O-])c1 [Compound 25]
Solution: 0.0±0.0 % of control

Problem: # query: COMT activity (% of control) | item O=C(COc1ccccc1)c1cc(O)c(O)c([N+](=O)[O-])c1 [Compound 8] | system: COMT (Homo sapiens)
Solution: 8.6±0.1 % of control

Problem: # returns recorded COMT activity (% of control) (system: COMT (Homo sapiens)) for Cl.O=C(CCN1CCCCC1)c1cc(O)c(O)c([N+](=O)[O-])c1 [Compound 2]
Solution: 7.5±0.6 % of control

Problem: Missing value: COMT activity (% of control), COMT (Homo sapiens), entry COc1ccc(OCC(=O)c2cc(O)c(O)c([N+](=O)[O-])c2)cc1 [Compound 9] . Fill in?
Solution: 12.8±0.4 % of control

Problem: // lookup COMT activity (% of control) | system=COMT (Homo sapiens) | key= Cl.Cl.O=C(CCN1CCN(C(=O)c2ccccc2)CC1)c1cc(O)c(O)c([N+](=O)[O-])c1 [Compound 29]
Solution: 1.5±0.6 % of control
